Value source: patent US9732046B2

Target: TelJak3 (BaF3 TELJAK cells, TEL/JAK3 fusion) (Homo sapiens, UniProt P52333)
Construct: For JAK3 Sa1 I/Not I cleaved kinase domain PCR product was ligated with BamH I/Sa1 I cleaved TELproduct; expressed in transfected cells; host or cells: BaF3 cells bearing the pTET-off plasmid, transfected with pTELJAK3 (pTRE2 vector); the other entry of the earlier key: ETV6 (P41212, Transcription factor ETV6)
Sequence (P52333 with tags, fused parts or gaps): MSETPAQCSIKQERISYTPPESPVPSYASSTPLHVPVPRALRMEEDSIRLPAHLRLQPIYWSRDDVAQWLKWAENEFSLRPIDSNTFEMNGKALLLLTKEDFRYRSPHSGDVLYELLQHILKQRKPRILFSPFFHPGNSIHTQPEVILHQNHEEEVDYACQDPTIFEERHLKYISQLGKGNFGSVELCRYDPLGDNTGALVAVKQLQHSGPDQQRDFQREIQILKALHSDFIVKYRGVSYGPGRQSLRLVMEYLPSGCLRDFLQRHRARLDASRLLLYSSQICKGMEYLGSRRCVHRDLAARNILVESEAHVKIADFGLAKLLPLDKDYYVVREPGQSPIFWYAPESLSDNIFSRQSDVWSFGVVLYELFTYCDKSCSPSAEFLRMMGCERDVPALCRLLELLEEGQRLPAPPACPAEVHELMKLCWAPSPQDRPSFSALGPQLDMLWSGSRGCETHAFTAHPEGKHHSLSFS
Experiment: Cellular growth inhibition assay (MTT), BaF3 TEL:JAK3 cell line
Type: cell-based
Conditions: Table 1, 40 hr incubation

compound	inhibition at 20 µM
CCCC(Nc1cncc(-c2ccc(NC(=O)c3cccnc3)c(OC)c2)n1)c1cccnc1 (stereo not drawn)	> 50%
CCCC(Nc1cncc(-c2ccc(CN3CCC[C@H]3CO)cc2)n1)c1ccccc1 (stereo partly drawn)	> 50%
CCCC(Nc1cncc(-c2ccc(NC(=O)NCC)c(OC)c2)n1)c1cccnc1C (stereo not drawn)	> 50%

---

Known inhibition at 20 µM of a selection of compounds
Test system: K562 (Chronic Myeloid Leukemia)
Assay: Cellular growth inhibition assay (MTT), K562
Assay type: cell-based
Settings: Homo sapiens, Table 1, 40 hr incubation

compound	inhibition at 20 µM
CCCC(Nc1cncc(-c2ccc(NC(=O)NCC)c(C)c2)n1)c1ccccn1 (stereo not shown)	> 50%
CCNC(=O)Nc1ccc(-c2cncc(N[C@@H](COC)c3ccccc3)n2)cc1OC	> 50%
CCC[C@H](Nc1cc(-c2ccc(NC(=O)NCC)c(OC)c2)ncn1)c1cccnc1	> 50%
CCCC(Nc1cncc(-c2ccc(OCCCCN3CCCCC3)c(OC)c2)n1)c1ccccc1 (stereo not shown)	> 50%
CCCC(Nc1cncc(-c2ccc(OCCCCN3CCCC3)c(OC)c2)n1)c1ccccc1 (stereo not shown)	> 50%
CCCC(Nc1cncc(-c2ccc(OCCCN3CCOCC3)c(OC)c2)n1)c1cccnc1 (stereo not shown)	< 50%
CCCC(Nc1cncc(-c2ccc(NC(=O)NCCCN3CCOCC3)c(OC)c2)n1)c1cccnc1 (stereo not shown)	> 50%
CCCC(Nc1cncc(-c2ccc(NC(=O)N3CCN(C)CC3)c(OC)c2)n1)c1cccnc1 (stereo not shown)	< 50%
CCCC(Nc1cncc(-c2ccc(C(=O)NCCCCCN)c(C)c2)n1)c1cccnc1 (stereo not shown)	> 50%
CCCC(Nc1cncc(-c2ccc(CN)c(OC)c2)n1)c1cccnc1 (stereo not shown)	> 50%
CCCC(Nc1cncc(-c2ccc(CNC(=O)C3CCCNC3)cc2)n1)c1ccccc1 (stereo not shown)	> 50%
CCCC(Nc1cncc(-c2ccc(CN3CCCC3)cc2)n1)c1ccccc1 (stereo not shown)	> 50%
CCC[C@H](Nc1cncc(-c2ccc(NC(=O)NCC)c(OC)c2)n1)c1ccccc1	> 50%
CCCC(Nc1cncc(-c2ccc(NC(=O)c3cccnc3)c(OC)c2)n1)c1cccnc1 (stereo not shown)	> 50%
CCCC(Nc1cncc(-c2ccc(CN)cc2)n1)c1ccccc1 (stereo not shown)	> 50%
CCCC(Nc1cncc(-c2ccc(OCCCCN)c(OC)c2)n1)c1ccccc1 (stereo not shown)	> 50%
CCCC(Nc1cncc(-c2ccc(OCCCN3CCCC3)c(OC)c2)n1)c1cccnc1 (stereo not shown)	> 50%
CCC[C@H](Nc1cncc(-c2ccc(NC(=O)CN(C)C)c(OC)c2)n1)c1cccnc1	> 50%
CCCC(Nc1cncc(-c2cc(OC)c(OC)c(OC)c2)c1)c1ccccc1 (stereo not shown)	> 50%
CCCC(Nc1cncc(-c2ccc(OCCCCN3CCOCC3)c(OC)c2)n1)c1ccccc1 (stereo not shown)	> 50%
COc1cc(-c2nccc(N[C@@H](C)c3ccccc3)n2)ccc1O	> 50%
CCCC(Nc1cncc(-c2ccc(NC(=O)NCC)cc2)n1)c1cccnc1 (stereo not shown)	> 50%
CCCC(Nc1cncc(-c2ccc(OCCCN3CCN(C)CC3)c(OC)c2)n1)c1cccnc1 (stereo not shown)	< 50%
CCCC(Nc1cncc(-c2ccc(OCCCCN3CCN(C)CC3)c(OC)c2)n1)c1ccccc1 (stereo not shown)	> 50%
CCCC(Nc1cncc(-c2ccc(NC(=O)NCC)c(OC)c2)n1)c1cccc(F)c1 (stereo not shown)	> 50%
CCCC(Nc1cncc(-c2ccc(C(=O)NCCN(C)C)cc2)n1)c1ccccc1 (stereo not shown)	< 50%
CCCC(Nc1cncc(-c2ccc(NC(=O)NCC)c(OC)c2)n1)c1cccnc1 (stereo not shown)	> 50%
CCCC(Nc1cc(-c2ccc(O)c(OC)c2)ncn1)c1cccnc1 (stereo not shown)	> 50%
CCC[C@H](Nc1cncc(-c2ccc(NC(=O)NCC)c(OC)c2)n1)c1ccccn1	> 50%
CCCC(Nc1cncc(-c2ccc(OCCCN3CCOCC3)c(OC)c2)n1)c1ccccc1 (stereo not shown)	> 50%
CCCC(Nc1cncc(-c2ccc(CO)cc2)n1)c1ccccc1 (stereo not shown)	> 50%
CCCC(Nc1cncc(-c2ccc(CN3CCOCC3)cc2)n1)c1ccccc1 (stereo not shown)	< 50%
CCCC(Nc1cncc(-c2ccc(C(=O)N3CCOCC3)cc2)n1)c1ccccc1 (stereo not shown)	< 50%
COc1cc(-c2cncc(N[C@@H](C)c3ccccc3)c2)ccc1O	> 50%
CCC[C@H](Nc1cncc(-c2ccc(NC(=O)NC)c(OC)c2)n1)c1cccnc1	> 50%
CCCC(Nc1cncc(-c2ccc(NC(=O)NCC)c(OC)c2)n1)c1cccnc1C (stereo not shown)	> 50%
CCCC(Nc1cncc(-c2ccc(CN(C)C)cc2)n1)c1ccccc1 (stereo not shown)	> 50%
